Value source: PubChem BioAssay AID1963835

Catalogue of compounds with associated viability, T/C
# Test system: 699152-130-R-J1-PDC complex spheroid viability;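 note: spheroids exposed to agents for 7 days before viability reading; percent of DMSO vehicle control viability so 100% = vehicle and 0% = no viable signal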
# assay.explanation: Anticancer human tumor 699152-130-R-J1-PDC patient-derived pancreatic carcinoma cell line growth inhibition [POLQ]
# settings: second compound 0.1 µM; first compound 1 µM; hits give low values
Write down the numeric answer in % and omit the unit.

Sample records with viability, T/C:
- compound: "CCc1cc2c(N3CCc4c(cc(Cn5ccnc5)cc4-c4cn(C)nc4C(F)(F)F)C3=O)ccnc2c(OC)n1 + Nc1ccc(C#CCN(C(=O)Cc2ncc(C(F)(F)F)cc2C(F)(F)F)c2ccc(F)cc2)nn1"
  measured.on: "699152-130-R-J1-PDC complex spheroid viability"
  viability, T/C / %: 98
- compound: "CC1COCCN1c1cc(C2(O)CC3CCC(C2)O3)c2cnn(-c3ccn[nH]3)c2n1 (stereo not drawn) + Nc1ccc(C#CCN(C(=O)Cc2ncc(C(F)(F)F)cc2C(F)(F)F)c2ccc(F)cc2)nn1"
  measured.on: "699152-130-R-J1-PDC complex spheroid viability"
  viability, T/C / %: 61.3

Now for another entry.
**Query** Return the recorded viability, T/C value; entry: CCCS(=O)(=O)Nc1ccc(F)c(C(=O)c2c[nH]c3ncc(-c4ccc(Cl)cc4)cc23)c1F + Cc1cccc(N(C)C(=O)C2C(O)CCN2c2nc(C)cc(C(F)(F)F)c2C#N)c1
**Result** 143
